Catalogue of pIC50 readings, one per entry.
Tested on: estrogen responsive element/promoter/luciferase reporter gene
Test: ERE Luciferase Assay in T47D-KBluc cells
Type: cell-based, human
Settings: Homo sapiens, 24 hours, luciferase activity, read-out: Target Engagement IC50
Remember, pIC50 is on a log scale: it is -log10 of the molar concentration.

Reference set (4 entries):
molecule	property-name	result-value
COCCOc1c(N2CCN(CC3CCN(c4ccc([C@@H]5c6ccc(O)cc6CC[C@@H]5c5ccccc5)cc4)CC3)CC2)ccc2c1CN(C1CCC(=O)NC1=O)C2=O (some centres unmarked) [compound 11]	pIC50	8.70
COc1cc(N2CCN(CCC3CCN(c4ccc([C@@H]5c6ccc(O)cc6CC[C@@H]5c5ccccc5)cc4)CC3)CC2)cc2c1C(=O)N(C1CCC(=O)NC1=O)C2 (some centres unmarked) [compound 10]	pIC50	9.07
COc1cc(N2CCN(CCCC(F)(F)COc3ccc([C@@H]4c5ccc(O)cc5CC[C@@H]4c4ccccc4)cc3)CC2)cc2c1C(=O)N(C1CCC(=O)NC1=O)C2 (some centres unmarked) [compound 12]	pIC50	9.00
O=C1CCC(N2Cc3cc(N4CCN(CCC5CCN(c6ccc([C@@H]7c8ccc(O)cc8CC[C@@H]7c7ccccc7)cc6)CC5)CC4)cc(OC(F)F)c3C2=O)C(=O)N1 (some centres unmarked) [compound 22]	pIC50	8.36

Give pIC50 for COCCOCCOc1c(N2CCN(CCCCCOc3ccc([C@@H]4c5ccc(O)cc5CC[C@@H]4c4ccccc4)cc3)CC2)ccc2c1CN(C1CCC(=O)NC1=O)C2=O (some centres unmarked) [compound 4]
8.85

====

Target: Estrogen Receptor-Alpha (ERα) (Homo sapiens, UniProt P03372)
Construct: endogenous in cells; host or cells: MCF-7 (MCF7) cells
Sequence (P03372 1-595): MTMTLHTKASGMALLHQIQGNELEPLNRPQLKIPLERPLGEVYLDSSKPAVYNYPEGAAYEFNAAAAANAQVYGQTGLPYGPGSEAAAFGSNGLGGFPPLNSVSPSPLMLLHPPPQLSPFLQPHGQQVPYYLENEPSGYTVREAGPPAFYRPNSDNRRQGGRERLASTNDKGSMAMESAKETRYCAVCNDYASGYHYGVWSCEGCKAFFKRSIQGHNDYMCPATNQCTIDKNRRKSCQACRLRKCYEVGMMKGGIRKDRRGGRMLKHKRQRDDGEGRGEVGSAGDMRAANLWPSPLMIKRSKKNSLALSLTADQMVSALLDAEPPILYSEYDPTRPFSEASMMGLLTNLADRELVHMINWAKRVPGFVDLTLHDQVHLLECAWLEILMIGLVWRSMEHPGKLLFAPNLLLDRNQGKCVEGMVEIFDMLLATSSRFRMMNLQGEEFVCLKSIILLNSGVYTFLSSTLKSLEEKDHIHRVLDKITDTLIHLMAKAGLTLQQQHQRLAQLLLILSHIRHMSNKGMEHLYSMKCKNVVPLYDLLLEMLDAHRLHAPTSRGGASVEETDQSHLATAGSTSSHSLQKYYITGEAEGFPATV
Experiment: Estrogen Receptor-Alpha (ERα) degradation assay in MCF-7 cells (western blot / In-Cell Western)
Assay type: cell-based
Settings: read-out: ER DC50
Description: 2. Estrogen Receptor-Alpha (ERα) Degradation Assay in MCF-7 Cells Using Western Blot Method for Table 5. The exemplary novel ERα degraders were assessed for their activity in degrading ERα in MCF-7 cells via western blot. The assay was carried out in the presence of 10% FBS or high percentage of human or mouse serum. Protocols of the western blot assay are described below. […] Degradation of ERα by claimed compounds were determined in MCF7 cells using an In-Cell Western™ assay. […]
Parameter DC50: see the listing below.

The following compounds have reported results that may help.
compound	result-value
COc1cc(N2CCN(CCC3(O)CC(Oc4ccc([C@@H]5c6ccc(O)cc6CC[C@@H]5c5ccccc5)cc4)C3)CC2)cc2c1C(=O)N(C1CCC(=O)NC1=O)C2 (stereo partly drawn) [compound 28]	< 1 nM
COc1cc(N2CCN(CCCC(F)(F)COc3ccc([C@@H]4c5ccc(O)cc5CC[C@@H]4c4ccccc4)cc3)CC2)cc2c1C(=O)N(C1CCC(=O)NC1=O)C2 (stereo partly drawn) [compound 12]	< 1 nM
O=C1CCC(N2Cc3cc(N4CCN(CCCCCOc5ccc([C@@H]6c7ccc(O)cc7CC[C@@H]6c6ccccc6)cc5)CC4)cc(OC(F)F)c3C2=O)C(=O)N1 (stereo partly drawn) [compound 20]	1 to 10 nM
COc1cc(N2CCN(CC(=O)C3CC(Oc4ccc([C@@H]5c6ccc(O)cc6CC[C@@H]5c5ccccc5)cc4)C3)CC2)cc2c1C(=O)N(C1CCC(=O)NC1=O)C2 (stereo partly drawn) [compound 26]	< 1 nM
COCCOCCOc1c(CCN2CCCN(CCCCOc3ccc([C@H]4c5ccc(O)cc5CC[C@H]4c4ccccc4)cc3)CC2)ccc2c1CN([C@H]1CCC(=O)NC1=O)C2=O [compound 7]	≥ 100 nM
COc1cc(N2CCN(CCCCCOc3ccc([C@@H]4c5ccc(O)cc5CC[C@@H]4c4ccccc4)cc3)CC2)cc2c1C(=O)N([C@H]1CCC(=O)NC1=O)C2 [compound 14]	< 1 nM
COc1cc(N2CCN(CCCCCOc3ccc([C@H]4c5ccc(O)cc5CC[C@H]4c4ccccc4)cc3)CC2)cc2c1C(=O)N(C1CCC(=O)NC1=O)C2 (stereo partly drawn) [compound 1]	10 to 100 nM
COc1cc(N2CCN(CC3CCN(c4c(F)cc([C@@H]5c6ccc(O)cc6CC[C@@H]5c5ccccc5)cc4F)CC3)CC2)cc2c1C(=O)N(C1CCC(=O)NC1=O)C2 (stereo partly drawn) [compound 19]	1 to 10 nM
O=C1CCC(N2Cc3cc(N4CCN(CCC5(O)CC(Oc6ccc([C@@H]7c8ccc(O)cc8CC[C@@H]7c7ccccc7)cc6)C5)CC4)cc(OC(F)F)c3C2=O)C(=O)N1 (stereo partly drawn) [compound 27]	< 1 nM
O=C1CCC(N2Cc3cc(N4CCN(CCC5CC(Oc6ccc([C@@H]7c8ccc(O)cc8CC[C@@H]7c7ccccc7)cc6)C5)CC4)cc(OC(F)F)c3C2=O)C(=O)N1 (stereo partly drawn) [compound 23]	1 to 10 nM

Please report DC50 for the following compound: O=C1CCC(N2C(=O)c3ccc(N4CCN(CC5CCN(c6ccc([C@@H]7c8ccc(O)cc8CC[C@@H]7c7ccccc7)cc6F)CC5)CC4)cc3C23CC3)C(=O)N1 (stereo partly drawn) [compound 30]
1 to 10 nM

Tell us which DC50 value is on record for COc1cc(N2CCN(CCC3CCN(c4ccc([C@@H]5c6ccc(O)cc6CC[C@@H]5c5ccccc5)cc4F)CC3)CC2)cc2c1C(=O)N(C1CCC(=O)NC1=O)C2 (stereo partly drawn) [compound 24]
1 to 10 nM

====

Entries and their pIC50
Tested on: estrogen responsive element/promoter/luciferase reporter gene
Assay: ERE Luciferase Assay in T47D-KBluc cells
Type: cell-based, human
Conditions: Homo sapiens, 24 hours, luciferase activity, read-out: Target Engagement IC50
Expect pIC50 as a plain number equal to -log10 of the molar concentration.

molecule	property-name	result-value
O=C1CCC(N2Cc3cc(N4CCN(CCC5CC(Oc6ccc([C@@H]7c8ccc(O)cc8CC[C@@H]7c7ccccc7)cc6)C5)CC4)cc(OC(F)F)c3C2=O)C(=O)N1 (stereo partly drawn)	pIC50	8.74
COCCOCCOc1c(N2CCN(CC3CCN(c4ccc([C@@H]5c6ccc(O)cc6CC[C@@H]5c5ccccc5)cc4)CC3)CC2)ccc2c1CN(C1CCC(=O)NC1=O)C2=O (stereo partly drawn)	pIC50	8.66
O=C1CCC(N2Cc3cc(N4CCN(CCCC(F)(F)COc5ccc([C@@H]6c7ccc(O)cc7CC[C@@H]6c6ccccc6)cc5)CC4)cc(OC(F)F)c3C2=O)C(=O)N1 (stereo partly drawn)	pIC50	8.60
COc1cc(N2CCN(Cc3cccc(COc4ccc([C@@H]5c6ccc(O)cc6CC[C@@H]5c5ccccc5)cc4)n3)CC2)cc2c1C(=O)N(C1CCC(=O)NC1=O)C2 (stereo partly drawn)	pIC50	8.82
COc1cc(N2CCN(CC3CCN(c4c(F)cc([C@@H]5c6ccc(O)cc6CC[C@@H]5c5ccccc5)cc4F)CC3)CC2)cc2c1C(=O)N(C1CCC(=O)NC1=O)C2 (stereo partly drawn)	pIC50	8.35

In one line, give reported pIC50 of the entry COc1cc(N2CCN(CCC3(O)CC(Oc4ccc([C@@H]5c6ccc(O)cc6CC[C@@H]5c5ccccc5)cc4)C3)CC2)cc2c1C(=O)N(C1CCC(=O)NC1=O)C2 (stereo partly drawn) .
9.52

Check the records and state pIC50 for COc1cc(N2CCN(CCCCCOc3ccc([C@@H]4c5ccc(O)cc5CC[C@@H]4c4ccccc4)cc3)CC2)cc2c1C(=O)N([C@H]1CCC(=O)NC1=O)C2
9.31

====

Test system: estrogen responsive element/promoter/luciferase reporter gene
Experiment: ERE Luciferase Assay in T47D-KBluc cells
Type: cell-based, human
Conditions: Homo sapiens, 24 hours, luciferase activity, read-out: Target Engagement IC50
property-name: IC50 (nM)
Kindly answer with a numeric value in nM, unit omitted.

molecule	tgt	result-value
COc1cc(N2CCN(CC(=O)C3CC(Oc4ccc([C@@H]5c6ccc(O)cc6CC[C@@H]5c5ccccc5)cc4)C3)CC2)cc2c1C(=O)N(C1CCC(=O)NC1=O)C2 (stereo partly drawn)	estrogen responsive element/promoter/luciferase reporter gene	0.7
COc1cc(N2CCN(CCCCCOc3ccc([C@H]4c5ccc(O)cc5CC[C@H]4c4ccccc4)cc3)CC2)cc2c1C(=O)N(C1CCC(=O)NC1=O)C2 (stereo partly drawn)	estrogen responsive element/promoter/luciferase reporter gene	58.2

Identify IC50 associated with the molecule COc1c(N2CCN(CCCCCOc3ccc([C@@H]4c5ccc(O)cc5CC[C@@H]4c4ccccc4)cc3)CC2)ccc2c1CN(C1CCC(=O)NC1=O)C2=O (stereo partly drawn)
1.35

The reported numbers originate from patent US12239711B2.
